assay-system: Focal Adhesion Kinase (full-length Flag-tagged human FAK) (Homo sapiens, UniProt Q05397)
Construct: a purified recombinant full-length Flag-tagged human FAK protein; Flag; made in house; host or cells: baculovirus infected insect cells
Sequence (Q05397 whole entry): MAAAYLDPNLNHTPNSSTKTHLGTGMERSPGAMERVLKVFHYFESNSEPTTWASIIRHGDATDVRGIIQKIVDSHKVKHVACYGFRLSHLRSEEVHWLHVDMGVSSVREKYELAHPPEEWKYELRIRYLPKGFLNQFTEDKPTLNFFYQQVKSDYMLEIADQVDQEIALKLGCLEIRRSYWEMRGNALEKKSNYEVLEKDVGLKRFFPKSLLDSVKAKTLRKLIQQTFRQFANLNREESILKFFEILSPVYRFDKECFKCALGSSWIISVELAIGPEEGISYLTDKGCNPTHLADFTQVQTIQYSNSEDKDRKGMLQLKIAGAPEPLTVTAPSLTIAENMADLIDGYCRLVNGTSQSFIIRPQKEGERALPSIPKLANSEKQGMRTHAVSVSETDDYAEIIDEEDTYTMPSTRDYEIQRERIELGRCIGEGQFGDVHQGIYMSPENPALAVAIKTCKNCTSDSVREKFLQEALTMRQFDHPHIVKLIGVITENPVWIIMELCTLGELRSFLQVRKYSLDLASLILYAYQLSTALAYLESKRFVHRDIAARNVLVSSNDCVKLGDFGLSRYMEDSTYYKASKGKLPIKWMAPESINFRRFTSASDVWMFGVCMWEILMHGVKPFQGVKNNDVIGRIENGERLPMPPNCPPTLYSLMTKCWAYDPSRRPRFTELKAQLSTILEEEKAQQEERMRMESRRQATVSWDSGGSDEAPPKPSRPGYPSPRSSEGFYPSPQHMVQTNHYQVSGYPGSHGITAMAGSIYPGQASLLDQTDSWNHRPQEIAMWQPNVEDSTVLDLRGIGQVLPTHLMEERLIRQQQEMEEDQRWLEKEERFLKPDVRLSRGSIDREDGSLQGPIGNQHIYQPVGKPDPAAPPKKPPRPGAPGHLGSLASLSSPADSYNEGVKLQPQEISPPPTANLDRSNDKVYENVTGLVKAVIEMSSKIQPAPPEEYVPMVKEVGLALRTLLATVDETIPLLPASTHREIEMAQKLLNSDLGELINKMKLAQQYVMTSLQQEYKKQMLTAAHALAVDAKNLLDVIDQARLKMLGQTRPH
assay-text: in vitro FAK ELISA kinase assay
Format: biochemical
cond: compound 10 uM; ATP 2 uM; read-out: FAK % Inhib ave: 10 uM
// False strictly below 30% in inhibition at 10 µM; True otherwise

For orientation, consider the following solved cases.
{"columns": ["compound", "qualitative-label"],
 "data": [
  ["c1cc(Nc2ncc3nnn(C4CCc5ccccc54)c3n2)cc(-c2nnn[nH]2)c1 (centres unmarked)", "False"],
  ["CCN(CC)CCNC(=O)c1ccc(Nc2ncc3nnn(Cc4ccccc4)c3n2)cc1", "True"],
  ["CCCCNS(=O)(=O)c1cccc(-n2nnc3cnc(Nc4ccc(C(=O)NCCN(CC)CC)cc4)nc32)c1", "True"],
  ["CN(CCCOc1ccc(Nc2ncc3nnn(-c4ccc5c(c4)CCC5)c3n2)cc1)Cc1ccccc1", "True"],
  ["CNC(=O)c1cccc(Nc2ncc3nnn(-c4ccc(-c5csnn5)cc4)c3n2)c1", "False"]
]}

Next:
**Query** Confirm if inhibition at 10 µM reported for the compound c1cc(OCCCN2CCOCC2)ccc1Nc1ncc2nnn(-c3ccc4c(c3)CCC4)c2n1 is 30% or above.
**Result** False

###

assay-system: Focal Adhesion Kinase (full-length Flag-tagged human FAK) (Homo sapiens, UniProt Q05397)
Construct: a purified recombinant full-length Flag-tagged human FAK protein; Flag; made in house; host or cells: baculovirus infected insect cells
assay-text: in vitro FAK ELISA kinase assay
Type: biochemical
cond: compound 10 uM; ATP 2 uM; read-out: FAK % Inhib ave: 10 uM
measured-metric: inhibition at 10 µM (%)
Provide only the numeric value, understood in %.

Some entries whose results are on file:
{"columns": ["compound", "value-observed"],
 "data": [
  ["COc1cc(-n2nnc3cnc(Nc4ccc5[nH]ncc5c4)nc32)cc(OC)c1OC [Compound 43]", 33.3],
  ["O=C(NCCCN1CCCC1=O)c1ccc(Nc2ncc3nnn(-c4ccc5c(c4)CCC5)c3n2)cc1 [Compound 77]", 54.2],
  ["COc1cc(-n2nnc3cnc(Nc4cccc(S(N)(=O)=O)c4)nc32)cc(OC)c1OC [Compound 44]", 24.7],
  ["CCN(CC)CCOC(=O)c1ccc(Nc2ncc3nnn(-c4ccc5c(c4)CCC5)c3n2)cc1 [Compound 32]", 30.2],
  ["CNC(=O)c1cccc(Nc2ncc3nnn(-c4ccc5c(c4)CCC5)c3n2)c1 [Compound 27]", 74.4],
  ["O=C(NCCCn1ccnc1)c1ccc(Nc2ncc3nnn(-c4ccc5c(c4)CCC5)c3n2)cc1 [Compound 74]", 72.8],
  ["CN(C)c1ccc(/C=C/c2ccc(Nc3ncc4nnn(-c5ccc6c(c5)CCC6)c4n3)cc2)cc1 [Compound 7]", -5]
]}

Next item in the queue.
**Query** Need inhibition at 10 µM of c1ccc(CN2CCN(c3ccc(Nc4ncc5nnn(Cc6ccccc6)c5n4)cc3)CC2)cc1 [Compound 59] , thanks.
**Result** 25

###

assay-system: Focal Adhesion Kinase (full-length Flag-tagged human FAK) (Homo sapiens)
Construct: a purified recombinant full-length Flag-tagged human FAK protein; Flag; made in house; host or cells: baculovirus infected insect cells
assay-text: in vitro FAK ELISA kinase assay
Assay type: biochemical
cond: compound 10 uM; ATP 2 uM; read-out: FAK % Inhib ave: 10 uM
Recorded inhibition at 10 µM split into classes bin 1: < 20%; bin 2: ≥ 20% and < 50%; bin 3: ≥ 50%

For orientation, consider the following solved cases.
{"columns": ["compound", "qualitative-label"],
 "data": [
  ["CN(C)CC(O)COc1ccc(Nc2ncc3nnn(-c4cccc(C#N)c4)c3n2)cc1 (stereo not shown)", "bin 3"],
  ["c1cc(Nc2ncc3nnn(C4CCCC4)c3n2)cc(-c2nnn[nH]2)c1", "bin 1"],
  ["CCCCNS(=O)(=O)c1cccc(Nc2ncc3nnn(-c4ccc(N5CCN(Cc6ccccc6)CC5)cc4)c3n2)c1", "bin 1"],
  ["OCCCOc1ccc(Nc2ncc3nnn(-c4ccc5c(c4)CCC5)c3n2)cc1", "bin 1"]
]}

**Query** Where would CN(CCCOc1ccc(Nc2ncc3nnn(-c4ccc5c(c4)CCC5)c3n2)cc1)CC(=O)O land among the classes by reported inhibition at 10 µM?
**Result** bin 3
